Collected TGI values appear next to each entry.
Test system: SF-268 CNS
Test: NCI tumour cell line growth inhibition, 48 h

Known results for compounds:
O=[N+]([O-])c1ccc(-c2csc3nc(-c4ccccc4)nn23)cc1: > 100 µM
O=c1/c(=C/c2ccccc2F)sc2nc3ccccc3n12: > 100 µM
CC(=O)OCC1OC(OC2C(CSC3OC(COC(C)=O)C(OC(C)=O)C(OC(C)=O)C3OC(C)=O)OC(OC(C)=O)C(OC(C)=O)C2OC(C)=O)C(OC(C)=O)C(OC(C)=O)C1OC(C)=O (stereo not given): > 100 µM

Ask: I am curious: what TGI value has been reported for COc1ccc2nc(-n3c(/C=C/c4ccccc4O)nc4ccccc4c3=O)sc2c1 ?
Reply: > 100 µM

Ask: Param item: COc1cccc(N=Cc2cc3cc(Br)ccc3nc2Cl)c1
Reply: > 50 µM

Ask: Item: C=CCOc1ccc(/C(N=Nc2ccc(Cl)cc2)=N/NC(=O)c2ccccc2)cc1OC
Reply: > 100 µM

Ask: And COc1ccc2c(C)cc(N/N=C(\C)C=O)nc2c1 ?
Reply: 41.1 µM

Ask: What would you report for O=C(C1OC1c1ccc(O)cc1)C12CC3CC(CC(C3)C1)C2 (stereo not given) ?
Reply: > 100 µM

Ask: Now the same for COc1cc(C=C2C(C)=NN(c3cccc(Cl)c3)C23SCC(=O)N3c2nc3ccccc3s2)ccc1O (stereo not given)
Reply: 57.9 µM

Ask: Now the compound CCCC1(NC(=O)C(F)(F)F)CC(OC)OC2COC(c3ccccc3)OC21 (stereo not given)
Reply: > 100 µM
